src = patent US20230159546A1

target: SARS-CoV-2 3CL-protease (Severe acute respiratory syndrome coronavirus 2, UniProt P0DTD1); experiment: SARS-CoV-2 3C-like (3CL) protease fluorescence assay (FRET); assay type: biochemical; details: recombinant SARS-CoV-2 3CL-protease 10 nM, 30 min preincubation at RT, duplicate; read-out: FRET IC50
pIC50: −log10 of the molar value.
PROPERTY_LABEL: pIC50

Known results for molecules:
[
  {
    "MOLECULE": "N#C[C@@H]1C[C@@]2(CN1C(=O)NCc1cc3ccccc3[nH]1)C(=O)Nc1ccccc12",
    "ASSAY_VALUE": "< 6.00"
  },
  {
    "MOLECULE": "N#C[C@@H]1C[C@@]2(CN1C(=O)CC(=O)N[C@@H]1CC[C@@H](O)C1)C(=O)Nc1ccccc12",
    "ASSAY_VALUE": "< 6.00"
  },
  {
    "MOLECULE": "CC(C)(C(=O)C1CCCCC1)C(=O)N1C[C@]2(C[C@H]1C#N)C(=O)Nc1ccccc12",
    "ASSAY_VALUE": "< 6.00"
  },
  {
    "MOLECULE": "CC(C)(C)OC(=O)N[C@@H]1CC[C@H](NC(=O)C(=O)N2C[C@]3(C[C@H]2C#N)C(=O)Nc2ccccc23)C1",
    "ASSAY_VALUE": "< 6.00"
  },
  {
    "MOLECULE": "N#C[C@@H]1C[C@@]2(CN1C(=O)c1cc3ccccc3nc1Cl)C(=O)Nc1ccccc12",
    "ASSAY_VALUE": "< 6.00"
  },
  {
    "MOLECULE": "CC(C)CC(C(=O)Nc1cc(F)ccc1F)C(=O)N1C[C@]2(C[C@H]1C#N)C(=O)Nc1ccccc12 (stereo partly shown)",
    "ASSAY_VALUE": "< 6.00"
  },
  {
    "MOLECULE": "N#C[C@@H]1C[C@@]2(CN1C(=O)C(F)(Cc1ccccc1)C(=O)Nc1cc(F)cc(F)c1)C(=O)Nc1ccccc12 (stereo partly shown)",
    "ASSAY_VALUE": "< 6.00"
  },
  {
    "MOLECULE": "N#C[C@@H]1C[C@@]2(CN1C(=O)CC(=O)N[C@@H]1CCC[C@@H]1O)C(=O)Nc1ccccc12",
    "ASSAY_VALUE": "< 6.00"
  }
]

# return recorded pIC50 for input CC(C)(C)OC(=O)N[C@@H]1CCC[C@@H]1NC(=O)C(=O)N1C[C@]2(C[C@H]1C#N)C(=O)Nc1ccccc12
6.00 to 7.00

# return recorded pIC50 for input N#C[C@@H]1C[C@@]2(CN1C(=O)C(=O)Nc1ccc(C(F)(F)F)nc1)C(=O)Nc1ccccc12
< 6.00

# return recorded pIC50 for input N#C[C@@H]1C[C@@]2(CN1S(=O)(=O)NC1CC1)C(=O)Nc1ccccc12
< 6.00

# return recorded pIC50 for input N#C[C@@H]1C[C@@]2(CN1C(=O)C1(C(=O)c3ccccc3)CC1)C(=O)Nc1ccccc12
< 6.00

# return recorded pIC50 for input N#C[C@@H]1C[C@@]2(CN1C(=O)[C@@H](Cc1ccccc1)C(=O)Nc1ccccc1)C(=O)Nc1ccccc12
< 6.00

# return recorded pIC50 for input N#C[C@@H]1C[C@@]2(CN1CC1CC1)C(=O)Nc1ccccc12
< 6.00

# return recorded pIC50 for input N#C[C@@H]1C[C@@]2(CN1C(=O)CC(=O)N[C@H]1CCC[C@H]1O)C(=O)Nc1ccccc12
< 6.00

# return recorded pIC50 for input CC(C)(C(=O)NC1CCCCC1)C(=O)N1C[C@]2(C[C@H]1C#N)C(=O)Nc1ccccc12
< 6.00

# return recorded pIC50 for input N#C[C@@H]1C[C@@]2(CN1C(=O)C(=O)Nc1cncc(C(F)(F)F)c1)C(=O)Nc1ccccc12
< 6.00

# return recorded pIC50 for input CCNC(=O)N1C[C@]2(C[C@H]1C#N)C(=O)Nc1ccccc12
< 6.00

# return recorded pIC50 for input N#C[C@@H]1C[C@@]2(CN1C(=O)C(Cc1ccccc1)C(=O)Nc1ccccc1)C(=O)Nc1ccccc12 (stereo partly shown)
6.00 to 7.00

# return recorded pIC50 for input N#C[C@@H]1C[C@@]2(CN1C(=O)C(=O)NCCCc1ccccc1)C(=O)Nc1ccccc12
6.00 to 7.00

# return recorded pIC50 for input N#C[C@@H]1C[C@@]2(CN1NC(=O)C1CC1)C(=O)Nc1ccccc12
< 6.00

# return recorded pIC50 for input Cc1nc(-c2ccc(S(=O)(=O)N3C[C@]4(C[C@H]3C#N)C(=O)Nc3ccccc34)s2)cs1
< 6.00

# return recorded pIC50 for input CC(C)OC(=O)N1C[C@]2(C[C@H]1C#N)C(=O)Nc1ccccc12
< 6.00

# return recorded pIC50 for input N#C[C@@H]1C[C@@]2(CN1C(=O)NCc1nccs1)C(=O)Nc1ccccc12
< 6.00

# return recorded pIC50 for input CC(C)CN1C[C@]2(C[C@@H]1C#N)C(=O)Nc1ccccc12
< 6.00

# return recorded pIC50 for input N#C[C@@H]1C[C@@]2(CN1S(=O)(=O)c1ccccc1)C(=O)Nc1ccccc12
< 6.00

# return recorded pIC50 for input N#C[C@@H]1C[C@@]2(CN1C(=O)C(Cc1ccccc1)C(=O)Nc1ccc3ccccc3c1)C(=O)Nc1ccccc12 (stereo partly shown)
6.00 to 7.00

# return recorded pIC50 for input CCCCCCNC(=O)C(=O)N1C[C@]2(C[C@H]1C#N)C(=O)Nc1ccccc12
6.00 to 7.00

----------
Below, each entry is listed alongside its reported pIC50.
biological target: SARS-CoV-2 3CL-protease (Severe acute respiratory syndrome coronavirus 2, UniProt P0DTD1); test: SARS-CoV-2 3C-like (3CL) protease fluorescence assay (FRET); format: biochemical; settings: recombinant SARS-CoV-2 3CL-protease 10 nM, 30 min preincubation at RT, duplicate; read-out: FRET IC50
pIC50: −log10 of the molar value.

[
  {
    "COMPOUND": "CC(C)(C)C(=O)N1C[C@]2(C[C@H]1C#N)C(=O)Nc1ccccc12",
    "ASSAY_VALUE": "< 6.00"
  }
]

# return recorded pIC50 for input N#C[C@@H]1C[C@@]2(CN1C(=O)C1(C(=O)Nc3ccccc3)CC1)C(=O)Nc1ccccc12
< 6.00

----------
target: SARS-CoV-2 3CL-protease (Severe acute respiratory syndrome coronavirus 2); test: SARS-CoV-2 3C-like (3CL) protease fluorescence assay (FRET); format: biochemical; settings: recombinant SARS-CoV-2 3CL-protease 10 nM, 30 min preincubation at RT, duplicate; read-out: FRET IC50
PROPERTY_LABEL: IC50

Known results for compounds:
[
  {
    "COMPOUND": "N#C[C@@H]1C[C@@]2(CN1C(=O)[C@@H](Cc1ccccc1)C(=O)c1ccccc1)C(=O)Nc1ccccc12",
    "IC50": "> 1 µM"
  },
  {
    "COMPOUND": "CC(C)C[C@H](C(=O)Nc1cc(F)cc(F)c1)C(=O)N1C[C@]2(C[C@H]1C#N)C(=O)Nc1ccccc12 (single isomer, unassigned)",
    "IC50": "> 1 µM"
  }
]

Next item in the queue.
# return recorded IC50 for input N#C[C@@H]1C[C@@]2(CN1C(=O)C(=O)Nc1cnccc1C(F)(F)F)C(=O)Nc1ccccc12
> 1 µM

----------
biological target: SARS-CoV-2 3CL-protease (Severe acute respiratory syndrome coronavirus 2); test: SARS-CoV-2 3C-like (3CL) protease fluorescence assay (FRET); format: biochemical; conditions: recombinant SARS-CoV-2 3CL-protease 10 nM, 30 min preincubation at RT, duplicate; read-out: FRET IC50
Below, each entry is listed alongside its reported IC50.

[
  {
    "MOLECULE": "CC(C)(C(=O)Nc1ccccc1)C(=O)N1C[C@]2(C[C@H]1C#N)C(=O)Nc1ccccc12 [Example 84]",
    "IC50": "> 1 µM"
  },
  {
    "MOLECULE": "N#C[C@@H]1C[C@@]2(CN1C(=O)C(Cc1ccccc1)C(=O)Nc1cc(F)cc(F)c1)C(=O)Nc1ccccc12 (stereo partly shown) [Example 23]",
    "IC50": "0.1 to 1 µM"
  },
  {
    "MOLECULE": "CCNC(=O)C(=O)N1C[C@]2(C[C@H]1C#N)C(=O)Nc1ccccc12 [Example 88]",
    "IC50": "> 1 µM"
  }
]

Next item in the queue.
// output IC50; input N#C[C@@H]1C[C@@]2(CN1C(=O)OC1CCCC1)C(=O)Nc1ccccc12 [Example 70] ; system SARS-CoV-2 3CL-protease (Severe acute respiratory syndrome coronavirus 2)
> 1 µM

----------
Below, each entry is listed alongside its reported IC50.
biological target: SARS-CoV-2 3CL-protease (Severe acute respiratory syndrome coronavirus 2, UniProt P0DTD1); assay: SARS-CoV-2 3C-like (3CL) protease fluorescence assay (FRET); format: biochemical; details: recombinant SARS-CoV-2 3CL-protease 10 nM, 30 min preincubation at RT, duplicate; read-out: FRET IC50

[
  {
    "COMPOUND": "CC(=O)N[C@H]1CC[C@@H](NC(=O)C(=O)N2C[C@]3(C[C@H]2C#N)C(=O)Nc2ccccc23)CC1",
    "IC50": "> 1000 nM"
  },
  {
    "COMPOUND": "CC(C)CC(F)(C(=O)Nc1ccccc1)C(=O)N1C[C@]2(C[C@H]1C#N)C(=O)Nc1ccccc12 (stereo partly shown)",
    "IC50": "> 1000 nM"
  },
  {
    "COMPOUND": "N#C[C@@H]1C[C@@]2(CN1C(=O)C(=O)NC1CCCC1)C(=O)Nc1ccccc12",
    "IC50": "100 to 1000 nM"
  },
  {
    "COMPOUND": "N#C[C@@H]1C[C@@]2(CN1C(=O)C(=O)NCCc1ccccc1)C(=O)Nc1ccccc12",
    "IC50": "> 1000 nM"
  },
  {
    "COMPOUND": "N#C[C@@H]1C[C@@]2(CN1C(=O)C(=O)N[C@H]1CC[C@@H](NC(=O)OCc3ccccc3)CC1)C(=O)Nc1ccccc12",
    "IC50": "> 1000 nM"
  },
  {
    "COMPOUND": "N#C[C@@H]1C[C@@]2(CN1C(=O)[C@@H](Cc1ccccc1)C(=O)NC1CC1)C(=O)Nc1ccccc12",
    "IC50": "> 1000 nM"
  }
]

Next item in the queue.
# return recorded IC50 for input N#C[C@@H]1C[C@@]2(CN1C(=O)[C@@H](Cc1ccccc1)C(=O)Nc1cc(F)cc(F)c1)C(=O)Nc1ccccc12
100 to 1000 nM
